tested on: RAW-Dual (murine macrophage reporter line); test: NF-kB reporter (SEAP) activity fold change vs agonist alone; higher = enhanced NF-kB activity; details: modulator concentration 10 µM; agonist: MPLA […]
observed.property: NF-kB reporter
Answer with a bare number; do not write a unit.

CCCCNc1ccc(C(=O)OCCN(C)C)cc1.Cl :: 0.987
Ic1ccc2c3ccc(I)cc3c3[nH]c(-c4ccccc4)nc3c2c1 :: 1.11
CCOc1ccccc1NC(=O)Nc1ccc2c(c1)CC(=O)N2CC :: 0.998
CN(C)Cc1ccc(S(=O)(=O)n2ccc(/C=C/C(=O)NO)c2)cc1 :: 1.25
c1ccc(CCn2c(COc3ccccc3)nc3ccccc32)cc1 :: 1.16

Task: I have this compound here, "N#C[C@@H]1C[C@@H]2C[C@@H]2N1C(=O)[C@@H](N)C12CC3CC(CC(O)(C3)C1)C2.O" , and I need its recorded NF-kB reporter.
Result: 0.955

---

Listed next: entries and their corresponding NF-kB reporter.
test system: RAW-Dual (murine macrophage reporter line); assay: NF-kB reporter (SEAP) activity fold change vs agonist alone; higher = enhanced NF-kB activity; settings: modulator concentration 10 µM; agonist: LPS 0.1 ug/mL
Answer with a bare number; do not write a unit.

These recorded examples may help you get a feel for the data.
CC1CC(=O)C2=C(C1)OC(N)=C(C#N)C2c1ccc(Br)cc1 (stereo unspecified) :: 0.91
Cc1cccc(C(=O)NC2CCC(F)(F)CC2)c1 :: 0.934
Cn1c(=O)c2c(ncn2CC(=O)O)n(C)c1=O :: 1.19
Cc1cccc(CS(=O)(=O)N2CCC(S(=O)(=O)c3nccn3C)CC2)c1 :: 1.02
CCOC(=O)c1ccc2nc(NC(=O)c3ccco3)sc2c1 :: 0.876
S=c1n(CN2CCOCC2)nc(-c2ccccc2Cl)n1-c1ccccc1 :: 0.985
CC(C)(Oc1ccc(Cl)cc1)C(=O)Nc1cnoc1 :: 1.09
Clc1ccc(Nc2nnc(Cc3ccncc3)c3ccccc23)cc1 :: 1.07
O=C(CCCCCN1C(=O)c2cccc3cccc(c23)C1=O)NCCO :: 1.01
Cn1c(=O)[nH]c2nnc(-c3cccnc3)nc2c1=O :: 0.961

Task: I have this molecule here, COc1ccccc1N1CCN(CC(O)COc2cccc3ccccc23)CC1 (stereo unspecified) , and I need its recorded NF-kB reporter.
Result: 1.21

---

tested on: RAW-Dual (murine macrophage reporter line); assay: NF-kB reporter (SEAP) activity fold change vs agonist alone; higher = enhanced NF-kB activity; details: modulator concentration 10 µM; agonist: LPS 0.1 ug/mL
Please note: rule met applies when NF-kB reporter is 1 or greater, and rule not met applies otherwise.

Task: Textbook exercise: given the entry COc1ccc(C(O)CN2CCN(c3cccc(C)c3C)CC2)cc1OC (stereo not given) , state whether its NF-kB reporter is greater than or equal to 1.
Result: rule not met

Task: Similarly, "O=C(Nc1ccc([N+](=O)[O-])cc1Cl)c1ccc([N+](=O)[O-])cc1" ?
Result: rule met

Task: Similarly, "N#CCCN(C1CCCCC1)S(=O)(=O)c1cccc2nsnc12" ?
Result: rule not met

Task: Similarly, "CC(C)(C)c1nc(-c2cccc(NS(=O)(=O)c3c(F)cccc3F)c2F)c(-c2ccnc(N)n2)s1" ?
Result: rule met

---

Listed next: entries and their corresponding IRF reporter.
system: RAW-Dual (murine macrophage reporter line); test: IRF reporter (Lucia luciferase) activity fold change vs agonist alone; higher = enhanced IRF activity; settings: modulator concentration 10 µM; agonist: MPLA […]

Task: I have this compound here, "NC(=O)c1cc(NC(=O)c2ccc(Cl)c(Cl)c2)cc(C(N)=O)c1" , and I need its recorded IRF reporter.
Result: 0.964

Task: Similarly, "CS(=O)(=O)O.N#CC1(c2ccc(NC(=O)c3cccnc3NCc3ccncc3)cc2)CCCC1" ?
Result: 0.99

Task: Similarly, "O=C(CCCCCl)NN1c2ccccc2CCc2ccccc21" ?
Result: 1.25

Every entry's value here was drawn from the supplement of paper PMC10646978.
